- assay remarks: Measurement of Sodium Ion Channel Blocking Effects: In order to measure the sodium ion channel blocking effect, an IonFlux16 Auto patch clamp system (Fluxion, Inc.) and a plate for exclusive use were used. The cells were distributed in an extracellular solution (4 mM KCl, 138 mM NaCl, 1 mM MgCl2, 1.8 mM CaCl2, 5.6 mM glucose, 10 mM HEPES, pH 7.45), and then dispensed in the specified region of the plate, and each of the prepared compound samples was diluted at various concentrations, and then dispensed in the specified region of the plate.
- Assay type: cell-based
Binning scheme for IC50: low (below 80 nM), moderate (80 nM to below 400 nM), high (400 nM or more)

Recorded results for 4 molecules are shown here.
>>> category("CNC1CCN(c2cc(OC)ccc2Nc2ccc(S(=O)(=O)Nc3cscn3)cc2Cl)C1 (centres undefined)")
"high"
>>> category("CNC1CCN(c2cc(Cl)cnc2Nc2cc(F)c(S(=O)(=O)Nc3cscn3)cc2Cl)C1 (centres undefined)")
"high"
>>> category("CNCCN(C)c1ccccc1Nc1cc(F)c(S(=O)(=O)Nc2cc(C)[nH]n2)cc1Cl")
"high"
>>> category("CN1CCN(c2cc(F)ccc2Nc2cc(F)c(S(=O)(=O)Nc3cscn3)cc2Cl)CC1")
"high"

## Task Please indicate the class for CNC1CCN(c2cc(F)ccc2Nc2cc(F)c(S(=O)(=O)Nc3cc(C)on3)cc2Cl)C1 (centres undefined) based on its IC50.
## Result moderate

## Task Please indicate the class for `CN(C)[C@H]1CCN(c2cc(C(F)(F)F)ccc2Nc2cc(F)c(S(=O)(=O)Nc3cscn3)cc2Cl)C1` based on its IC50.
## Result high

## Task Please indicate the class for COC1CCN(c2cc(F)ccc2Nc2ccc(S(=O)(=O)Nc3cscn3)cc2Cl)C1 (centres undefined) based on its IC50.
## Result high

## Task Please indicate the class for `CNCCN(C)c1cc(OC)ccc1Nc1cc(F)c(S(=O)(=O)Nc2ncc(Cl)s2)cc1Cl` based on its IC50.
## Result low

## Task Please indicate the class for `CN[C@@H]1CCCN(c2cc(OC)ccc2Nc2ccc(S(=O)(=O)Nc3cscn3)cc2Cl)C1` based on its IC50.
## Result high

## Task Please indicate the class for `CN(C)CCN(C)c1cc(F)ccc1Nc1cc(F)c(S(=O)(=O)Nc2ncc(Cl)s2)cc1Cl` based on its IC50.
## Result low

## Task Please indicate the class for `CNCCN(C)c1cc(F)ccc1Nc1cc(F)c(S(=O)(=O)Nc2cc(C(C)(C)C)on2)cc1Cl` based on its IC50.
## Result moderate

## Task Please indicate the class for `CN(C)CCN(C)c1cc(F)ccc1Nc1cc(F)c(S(=O)(=O)Nc2cscn2)cc1Cl` based on its IC50.
## Result moderate

## Task Please indicate the class for `CNCCN(C)c1cc(F)ccc1Nc1cc(F)c(S(=O)(=O)Nc2nccs2)cc1Cl` based on its IC50.
## Result low

## Task Please indicate the class for CCN(CC)C1CCN(c2cc(Cl)ccc2Nc2cc(F)c(S(=O)(=O)Nc3cscn3)cc2Cl)C1 (centres undefined) based on its IC50.
## Result moderate

## Task Please indicate the class for `CN[C@@H]1CCN(c2cc(F)ccc2Nc2cc(F)c(S(=O)(=O)Nc3cscn3)cc2Cl)C1` based on its IC50.
## Result low

## Task Please indicate the class for `CN1CCN(c2cc(C(F)(F)F)ccc2Nc2cc(F)c(S(=O)(=O)Nc3cscn3)cc2Cl)CC1` based on its IC50.
## Result high

## Task Please indicate the class for `CN[C@@H]1CCN(c2cc(F)ccc2Nc2ccc(S(=O)(=O)Nc3cscn3)cc2)C1` based on its IC50.
## Result high

## Task Please indicate the class for CNC1CCN(c2cc(F)ccc2Nc2ccc(S(=O)(=O)Nc3cscn3)cc2Cl)C1 (centres undefined) based on its IC50.
## Result high
